Would you mind telling me the reported composite z-score of each entry?
- assayProtocol: small-molecule microarray binders of probe aLefty2, primary screen, biochemical, biotinylated probe, 635/667 nm fluorescence (AID 1094);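 also: score merges spot fluorescence near 667 nm with spot signal-to-noise ratio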
- condition: higher = more signal

INSERT INTO measurements (compound, valueobserved) VALUES
  ('COCCOC(=O)N1C(=O)[C@@]2(c3cc(C#Cc4ccc(OC)cc4)ccc31)[C@H](C(=O)N1CCCCCCC1)[C@H]1C(=O)O[C@H](c3ccccc3)[C@H](c3ccccc3)N1[C@@H]2c1ccc(OCCO)cc1', 1.59),
  ('C=C(COC)/C(=C/C[C@@H](OC(C)=O)c1ccc(OCCO)cc1)c1cc(C(=O)OC)ccc1OC', -0.027);

Would you mind giving composite z-score for every compound in the list below?
1. COCCCN1C(=O)[C@@]2(Cc3ccccc31)c1ccccc1C(=O)N(Cc1ccccc1C(F)(F)F)[C@H]2c1ccc(CO)cc1
2. Cc1ccc(S[C@]2(C(=O)NCC(F)(F)F)CC(=O)N(C(C)C)[C@@H]2c2ccc(CO)cc2I)cc1
3. [N-]=[N+]=NCc1ccccc1[C@H]1OC(c2ccc(OCCCO)cc2)=N[C@@]1(Cc1ccccc1)C(=O)NCc1ccccc1
4. CCCCCC1=C2CNC(CCC)(C(=O)OC)C=C2C(C)C1=O (configuration not stated)
5. CN1C(=O)[C@]2(Cc3ccccc3)N=C(c3ccc(OCCCO)cc3)O[C@@H]2c2ccccc21
6. [N-]=[N+]=Nc1ccccc1C[C@]1(C(N)=O)N=C(c2ccc(OCCCO)cc2)O[C@H]1c1ccccc1
7. COc1ccc(C(O)C2C=CC3C(=O)N(c4ccccc4)C(=O)C3N2Nc2ccccc2F)cc1OCc1ccccc1 (configuration not stated)

Given back:
1. -0.143
2. -0.0873
3. 0.151
4. 0.0943
5. -0.0354
6. -0.0893
7. 0.312

Would you mind giving composite z-score for every compound in the list below?
1. CC(C)(C)OC(=O)CC[C@]1(C(=O)NCC(O)CO)COC(c2ccc(OCCCO)cc2)=N1 (some centres not stated)
2. COC(=O)[C@@]1(Cc2ccc(F)cc2)[C@H]2c3cc(C(=O)N4CCCC4)n(Cc4cc(C)n(C)n4)c3C[C@H]2CN1C(=O)c1ccccc1
3. COc1cc2c(cc1O)C=[N+](Cc1cccc(OC(F)(F)F)c1)CC2
4. C#CCNC(=O)[C@H](Cc1ccccc1)NC(=O)CCC(=O)O
5. CCCC=C(CCC)[C@@H](NS(=O)(=O)c1cccs1)c1ccc(C(=O)OC)cc1
6. CCCCN1CC=CC23O[C@@H]4/C=C\CCC(C)OC(=O)C4[C@H]2C(=O)N(CCCCCO)[C@@H]3C1=O (some centres not stated)

Given back:
[-0.12, 0.555, -0.103, -0.198, -0.0375, -0.205]

Would you mind giving composite z-score for every compound in the list below?
1. C=C(CCCC)C(=O)CC[C@H](OC(=O)c1cccnc1)c1ccccc1OCCO
2. CN1C(=O)C2C=CC(C(O)C3CCCCC3)N(Nc3ccc([N+](=O)[O-])cc3[N+](=O)[O-])C2C1=O (configuration not stated)

Given back:
1. -0.19
2. 0.191

====

- assayProtocol: E. coli growth modulation, two-sided OD650, primary screen, E. coli filamentation project, strain DRC41, 24 h (AID 1093);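 also: MC1000 strain lacking acrAB efflux and sulA so SOS filamentation is blocked; test concentration not given here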
- condition: OD650, 24 h, higher = more signal, called active from +8 up or from −8 down
quantityName: z-score
One number for each entry.

Study these solved cases before continuing.
INSERT INTO measurements (compound, valueobserved) VALUES
  ('CCOC(=O)C[C@H]1[C@H](OC(=O)Cc2ccc3c(c2)OCO3)[C@@H](NC(=O)c2ccc3ccccc3c2)c2cc(OCCCO)ccc2N1C(=O)c1ccccc1', 1.35),
  ('COc1ccc(CCN2C(=O)[C@@]3(Cc4ccccc42)c2ccccc2C(=O)N(Cc2ccccc2C(F)(F)F)[C@H]3c2ccc(CO)cc2)cc1', -2.33),
  ('COc1ccc([Si](C)(C)[C@H]2[C@H](CC(=O)N3Cc4ccccc4C[C@H]3CO)O[C@@]3(C(=O)N(Cc4ccc(N5CCC5=O)cc4)c4ccccc43)[C@@H]2C)cc1', 1.65),
  ('CC(C)(C)OC(=O)CC[C@]1(C(=O)NCC(O)CO)COC(c2ccc(OCCCO)cc2)=N1 (stereo partly specified)', -0.0576),
  ('COc1cc(CO)cc(I)c1O[C@H]1C=C(C(=O)NCCO)C[C@@H](N(CCN2CCOCC2)C(=O)C2CCOC2)[C@@H]1O (stereo partly specified)', 2.36),
  ('COc1ccc(NN2C(C(O)c3ccc([N+](=O)[O-])cc3)C=CC3C(=O)N(C4CCCCC4)C(=O)C32)cc1 (stereo unspecified)', -0.103),
  ('C=C(/C(=C/C[C@@H](OC(C)=O)c1ccc(OCCO)cc1)c1cnc2ccccc2c1)C(C)C', 0.762),
  ('C=CC[C@]1(C(=O)NCCCOC)N=C(c2ccc(OCCCO)cc2)O[C@H]1c1ccccc1N=[N+]=[N-]', 0.421);

Would you mind giving z-score for every compound in the list below?
1. Cc1ccc(S[C@]2(C(=O)NCC(F)(F)F)CC(=O)N(C(C)C)[C@@H]2c2ccc(CO)cc2I)cc1
2. N#Cc1ccc(NN2C(C(O)c3c(F)cccc3Cl)C=CC3C(=O)N(c4ccccc4)C(=O)C32)cc1 (stereo unspecified)
3. CN1C(=O)C2C=CC(C(O)C3CC=CCC3)N(NC(=O)OC(C)(C)C)C2C1=O (stereo unspecified)
4. Cc1ccc(S[C@]2(C(=O)NCCN3CCOCC3)CC(=O)N(Cc3ccccc3Cl)[C@@H]2c2ccc(CO)cc2)cc1

Given back:
1. 0.0493
2. -0.62
3. -1.16
4. 0.149

Where these numbers come from: PubChem BioAssay
